Molecular target: Androgen receptor (Homo sapiens)
Sequence (P10275 whole entry): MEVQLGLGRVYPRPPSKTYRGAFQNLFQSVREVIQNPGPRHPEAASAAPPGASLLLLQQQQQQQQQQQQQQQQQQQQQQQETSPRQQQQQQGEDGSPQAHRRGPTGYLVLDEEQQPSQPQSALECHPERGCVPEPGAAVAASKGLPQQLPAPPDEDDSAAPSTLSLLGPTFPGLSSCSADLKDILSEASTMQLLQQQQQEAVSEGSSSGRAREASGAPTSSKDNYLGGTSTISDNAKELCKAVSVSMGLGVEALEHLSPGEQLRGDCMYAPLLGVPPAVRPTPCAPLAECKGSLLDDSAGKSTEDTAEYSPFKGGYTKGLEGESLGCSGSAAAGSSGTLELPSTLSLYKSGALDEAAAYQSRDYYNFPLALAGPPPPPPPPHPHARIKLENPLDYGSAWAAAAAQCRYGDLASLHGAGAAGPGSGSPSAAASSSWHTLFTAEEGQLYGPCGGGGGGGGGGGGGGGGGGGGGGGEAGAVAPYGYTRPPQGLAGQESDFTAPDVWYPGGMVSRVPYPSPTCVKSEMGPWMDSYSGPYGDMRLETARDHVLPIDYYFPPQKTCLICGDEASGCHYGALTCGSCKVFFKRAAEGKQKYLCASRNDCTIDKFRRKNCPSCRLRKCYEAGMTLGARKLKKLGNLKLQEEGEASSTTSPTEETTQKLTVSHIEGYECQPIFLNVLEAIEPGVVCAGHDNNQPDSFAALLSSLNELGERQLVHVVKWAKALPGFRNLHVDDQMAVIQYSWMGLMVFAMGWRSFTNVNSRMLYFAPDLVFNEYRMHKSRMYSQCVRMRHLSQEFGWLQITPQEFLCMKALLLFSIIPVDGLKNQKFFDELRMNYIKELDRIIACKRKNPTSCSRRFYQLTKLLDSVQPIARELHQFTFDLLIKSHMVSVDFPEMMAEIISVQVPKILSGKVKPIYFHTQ
Consider the following IC50 data for Androgen receptor (Homo sapiens), collected from several reports.
# strict inequality: IC50 < 0.9 µM yields Condition met, everything else yields Condition not met

Reference set, count: 6
MOLECULE: Cc1cc(C)c(S(=O)(=O)N[C@@H](C)CNc2cccc3c2cnn3-c2ccc(F)cc2)c(C)c1
CLASSIFICATION: Condition not met
--
MOLECULE: CC1(C)C(=O)N(c2ccc(C#N)c(C(F)(F)F)c2)C(=S)N1c1ccc(C(=O)NCCCCCCn2cccc(O)c2=O)c(F)c1
CLASSIFICATION: Condition met
--
MOLECULE: Cc1nn(Cc2cccnc2)c(-c2ccc(F)cc2)c1-c1ccc2c(c1)NC(=O)CO2
CLASSIFICATION: Condition not met
--
MOLECULE: N#Cc1ccc2[nH]c3c(c2c1)CCCC3(O)C(F)(F)F (centres undefined)
CLASSIFICATION: Condition met
--
MOLECULE: Cc1nn(CC(F)(F)CCO)c(-c2ccc(F)cc2)c1-c1ccc2c(c1)NC(=O)CO2
CLASSIFICATION: Condition not met
--
MOLECULE: C[C@]12Cn3cnc(-c4ccc(F)cc4)c3C=C1CCC[C@@H]2[C@](C)(O)c1cccc(C#N)c1
CLASSIFICATION: Condition not met

Okay, next one:
Prompt: Report whether reported IC50 is lower than 0.9 µM (strictly) for O=S(=O)(Nc1ccc(-c2ccc3c(cnn3-c3ccc(F)cc3)c2)c(C(F)(F)F)c1)c1cccc(C(F)(F)F)c1
Completion: Condition not met
